# Test system: HCC-2998 colon
# test: NCI tumour cell line growth inhibition, 48 h
measurementLabel: TGI (µM)
# number only, unit µM dropped from output

# example entries with known answers
- compound: "C=CC[C@]1(/C=N/O)CN(S(=O)(=O)CC[Si](C)(C)C)C[C@H]2CC=CC[C@H]21"
  measurementLabel: "TGI"
  unitsText: "µM"
  recordedMeasurement: 31.9
- compound: "COc1ccc2c(c1)/C(=C\\c1c(Cl)[nH]c3cc(C)c(OC)cc13)C(=O)N2"
  measurementLabel: "TGI"
  unitsText: "µM"
  recordedMeasurement: 6.19
- compound: "COc1ccc(Cn2c(=O)c(OC)c(C)c3cc4ccccc4cc32)cc1"
  measurementLabel: "TGI"
  unitsText: "µM"
  recordedMeasurement: 63.5
- compound: "COC(=O)c1csc([C@@H](OC(=O)[C@H](C)[C@H](CCCC(C)(Cl)Cl)OC(=O)c2csc([C@H](O)CO)n2)C(C)C)n1"
  measurementLabel: "TGI"
  unitsText: "µM"
  recordedMeasurement: 22.2
- compound: "CN(C)C/C=C/C(=O)Nc1ccc(C(=O)N[C@@]2(C)CCC[C@@H](Nc3ncc(Cl)c(-c4c[nH]c5ccccc45)n3)C2)nc1"
  measurementLabel: "TGI"
  unitsText: "µM"
  recordedMeasurement: 0.164
- compound: "CCCCCCCC(CC(=O)NC(CO)C(=O)NC(CO)CC(C)C)OC(=O)CC(CCCCCCC)OC(=O)CC(CCCCCCC)OC1OC(C)C(O)C(OC2OC(C)C(OC(C)=O)C(O)C2O)C1O (stereo not given)"
  measurementLabel: "TGI"
  unitsText: "µM"
  recordedMeasurement: 17.2
- compound: "CCCOC(=O)N[C@H]1CCc2c(Cl)c(OC)c(OC)c(OC)c2-c2ccc(SC)c(=O)cc21"
  measurementLabel: "TGI"
  unitsText: "µM"
  recordedMeasurement: 0.7

We now examine a further compound.
// query Suppose we examine the compound CC(C)(C)C1CCC(=O)/C(=C/CC2CC(=O)N(c3ccccc3)C(=O)C2)C1 (stereo not given) ; what TGI value has been reported?
// result 43.5

* * *

# System: SK-OV-3 ovarian
# test: NCI tumour cell line growth inhibition, 48 h
measurementLabel: log10(TGI) (log10 of the value in µM)
Answers are given as log10 of TGI in µM.

// solved cases for log10(TGI) follow
- compound: "CN(c1ccc(NC(=O)Nc2c(Cl)cccc2Cl)cc1)c1ccnc(Nc2cccc(CS(C)(=O)=O)c2)n1"
  log10(TGI): 1.08
- compound: "CCCCCCCCn1ccc2cc(NC(=O)Cn3cc(CN4CCCCCC4)nn3)ccc21"
  log10(TGI): 0.52
- compound: "Cc1n(CC(C)C)c2c([n+]1C)C(=O)c1ccccc1C2=O"
  log10(TGI): 0.34
- compound: "NC(CSC(c1ccccc1)(c1ccccc1)c1ccccc1)C(=O)NCC(=O)O (configuration not stated)"
  log10(TGI): 1.64

Next:
// query Fill blank: measured log10(TGI) of the compound COc1ccc(CC2COc3cc(OC)cc(OC)c3C2=O)cc1 (configuration not stated) is ____.
// result 1.75

* * *

log10(TGI) values by entry
# Tested on: NCI-H522 lung
# test: NCI tumour cell line growth inhibition, 48 h
Note: values are log10 of TGI expressed in µM.

Please review the entries below; each comes with its answer.
- structure: "O=c1[nH]c2cc(C(F)(F)F)ccc2nc1C(F)(F)F"
  recordedMeasurement: 2.00
- structure: "CNC(=O)OCc1nc(SSC(C)(C)C)n(C)c1COC(=O)NC"
  recordedMeasurement: 0.43

// query Value lookup for log10(TGI); key = COc1cc2c(cc1OCCCCCCCCCCN1C(=O)c3cccc4cccc(c34)C1=O)N=C[C@@H]1CCCN1C2=O
// result 1.46

// query # query: log10(TGI) of entry CCOC(=O)Nc1cc2c(c(N)n1)N=C(c1ccc(OC)cc1)CN2
// result -2.20

// query Name the recorded log10(TGI) for CN(c1ccc(NC(=O)Nc2c(Cl)cccc2Cl)cc1)c1ccnc(Nc2cccc(CS(C)(=O)=O)c2)n1 .
// result 0.97
